Where a name gives a salt, the structure may show the parent alone.
Experimental readout: melting point

Below are worked cases with known answers.
*Q* Which melting point is reported for this compound? COc1cccc2c(CCNC3COc4c(F)ccc(C(N)=O)c4C3)coc12 (stereo not shown)
*A* 172 to 174 °C

*Q* Repeat with CNC(=O)c1ccc(F)c2c1CC(N(CCCCc1c[nH]c3ccc(F)cc13)CC1CC1)CO2 (stereo not shown) (as salt: hydrochloride)
*A* 112 °C (dec.)

*Q* Repeat with C[C@@H](CCN(C1CCC1)[C@@H]1COc2c(F)ccc(C(N)=O)c2C1)c1c[nH]c2ccc(F)cc12 (as salt: hydrochloride) [Compound 153b]
*A* 162 to 168 °C

*Q* Repeat with NC(=O)c1ccc(F)c2c1CC(N(CCCc1c[nH]c3ccc(Cl)cc13)C1CCC1)CO2 (stereo not shown) (as salt: hydrochloride)
*A* 152 to 160 °C (dec.)

---
*Q* Which melting point is reported for this compound? CCN(C(C)CCc1c[nH]c2ccc(F)cc12)C1COc2c(F)ccc(C(N)=O)c2C1 (single isomer, unassigned; (-)) (as salt: hydrochloride) [Compound 16a]
*A* 132 °C (dec.)

*Q* Repeat with COC(=O)c1ccc(F)c2c1C[C@H](NCCCCc1c[nH]c3ccc(F)cc13)CO2 (as salt: hydrochloride) [Compound 57a]
*A* 240 °C (dec.)

*Q* Repeat with COc1cccc2c1CC(N(CCCc1c[nH]c3ccccc13)CC1CC1)CO2 (stereo not shown) (as salt: hydrochloride)
*A* 107 to 110 °C

*Q* Repeat with CCCN(CCCc1c[nH]c2c(F)cc(F)cc12)C1COc2c(C(N)=O)ccc(F)c2C1 (stereo not shown) (as salt: hydrochloride)
*A* 130 °C (dec.)

*Q* Repeat with O=C(NC1CC1)c1ccc(F)c2c1CC(N(CCCc1c[nH]c3ccc(F)cc13)C1CCC1)CO2 (stereo not shown) (as salt: hydrochloride)
*A* 134 °C (dec.)

====

# Target: 5-HT1A receptor (Homo sapiens)
# Test details: cAMP accumulation assay, 5-HT1A function
# Assay type: cell-based
# Recorded conditions: in brackets after EC50 or IC50; read-out: 5-HT1A Function cAMP (Emax)
Experimental readout: Emax (%)
Provide the reading as a plain figure in %.

*Q* Which Emax is reported for this molecule? CNC(=O)c1ccc(F)c2c1CC(N(CCCCc1c[nH]c3ccc(F)cc13)C1CCC1)CO2 (stereo not drawn)
*A* 0

*Q* Repeat with CCN(CCc1c[nH]c2ccc(F)cc12)C1CCc2cccc(OC)c2C1 (stereo not drawn)
*A* 93

*Q* Repeat with CCN(CCCc1c[nH]c2c(Cl)cccc12)C1COc2c(F)ccc(C(N)=O)c2C1 (stereo not drawn)
*A* 75

*Q* Repeat with CCCCN(CCCc1c[nH]c2ccc(F)cc12)C1COc2c(F)ccc(C(N)=O)c2C1 (stereo not drawn)
*A* 0

*Q* Repeat with CCN(CCCCn1ccc2ccc(F)cc21)C1COc2c(F)ccc(C(N)=O)c2C1 (stereo not drawn)
*A* 89

*Q* Repeat with CCCN(CCCc1c[nH]c2ccc(OC)cc12)C1COc2c(F)ccc(C(N)=O)c2C1 (stereo not drawn)
*A* 99

---
*Q* Which Emax is reported for this molecule? COc1cccc2c1CC(N(C)CCCc1c[nH]c3ccc(F)cc13)CO2 (stereo not drawn)
*A* 91

*Q* Repeat with COC(=O)c1ccc(F)c2c1CC(N(CCCc1c[nH]c3ccc(F)cc13)C1CCC1)CO2 (stereo not drawn)
*A* 0

*Q* Repeat with COc1cccc2c1CC(N(CCCc1c[nH]c3ccccc13)C1CCC1)CO2 (stereo not drawn)
*A* 80.5

====

# Target: 5-HT1A receptor (Homo sapiens)
# Test details: cAMP accumulation assay, 5-HT1A function
# Assay type: cell-based
# Recorded conditions: cells marked IC50 (antagonist); read-out: 5-HT1A Function cAMP IC50
Experimental readout: pIC50
pIC50 here is simply -log10 of the concentration when that concentration is written in mol/L.

Below are worked cases with known answers.
*Q* Which pIC50 is reported for this compound? CC(CCc1c[nH]c2ccc(F)cc12)N(CC1CC1)C1COc2c(F)ccc(C(N)=O)c2C1 (single isomer, unassigned; (-)) [Compound 15a]
*A* 7.14

*Q* Repeat with NC(=O)c1ccc(F)c2c1C[C@@H](NCC1CCc3[nH]c4ccc(F)cc4c3C1)CO2 (single isomer, unassigned; (+)) [Compound 175b]
*A* 5.38

*Q* Repeat with CCCN(C(C)CCCc1c[nH]c2ccc(F)cc12)C1COc2c(F)ccc(C(N)=O)c2C1 (single isomer, unassigned; (+)) [Compound 14a]
*A* 6.83

*Q* Repeat with NC(=O)c1ccc(F)c2c1CC(N(CCCc1c[nH]c3c(Cl)cccc13)C1CCC1)CO2 (stereo not shown)
*A* 5.97

*Q* Repeat with CCCN(CCCCc1c[nH]c2ccc(F)cc12)C1COc2c(F)ccc(C(=O)NC)c2C1 (stereo not shown)
*A* 6.64

---
*Q* Which pIC50 is reported for this compound? COc1cccc2c(CCCN(CC3CC3)C3COc4c(F)ccc(C(N)=O)c4C3)c[nH]c12 (stereo not shown)
*A* 6.76

*Q* Repeat with NC(=O)c1ccc(Cl)c2c1CC(N(CCCc1c[nH]c3ccc(F)cc13)C1CCC1)CO2 (stereo not shown)
*A* 7.22

====

Reported Emax is given for each of the following compounds.
# Target: cloned human 5-HT1A receptors (Homo sapiens, UniProt P08908)
# Construct: expressed in transfected cells
# Sequence (P08908 1-422): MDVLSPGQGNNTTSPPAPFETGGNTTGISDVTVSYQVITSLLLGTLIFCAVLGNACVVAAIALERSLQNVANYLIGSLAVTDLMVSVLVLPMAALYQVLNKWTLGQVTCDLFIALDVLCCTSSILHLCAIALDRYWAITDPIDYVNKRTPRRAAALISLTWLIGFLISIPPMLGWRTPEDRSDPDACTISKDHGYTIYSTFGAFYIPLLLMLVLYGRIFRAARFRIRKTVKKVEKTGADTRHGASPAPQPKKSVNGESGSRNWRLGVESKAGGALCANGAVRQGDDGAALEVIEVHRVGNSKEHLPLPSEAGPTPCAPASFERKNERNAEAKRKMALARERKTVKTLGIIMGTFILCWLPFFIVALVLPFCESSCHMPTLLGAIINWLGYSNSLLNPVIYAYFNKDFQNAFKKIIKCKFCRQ
# Test details: 35S-GTPγS binding assay, 5-HT1A function
# Format: biochemical
# Recorded conditions: maximum stimulatory effect, in brackets after EC50; read-out: 5-HT1A Function GTPγS (Emax)
Provide the reading as a plain figure in %.

*Q* Which Emax is reported for this compound? CCCN(CCCc1c[nH]c2ccc(F)cc12)C1COc2c(F)ccc(C(N)=O)c2C1 (stereo not shown) [Compound 2]
*A* 77

*Q* Repeat with COc1cccc2c1CC(N[C@H]1CC[C@@H](c3c[nH]c4ccc(F)cc43)CC1)CO2 (relative stereo) [Compound 181a]
*A* 79.4

*Q* Repeat with CCCN(CCCc1c[nH]c2ccc(F)cc12)[C@H]1COc2c(F)ccc(OC)c2C1
*A* 88

// next entry
*Q* Which Emax is reported for this compound? CCCN(CCCc1c[nH]c2ccc(F)cc12)C1COc2cccc(OC)c2C1 (stereo not shown)
*A* 100

====

Reported pIC50 is given for each of the following molecules.
# Target: 5-HT1A receptor (Homo sapiens, UniProt P08908)
# Test details: cAMP accumulation assay, 5-HT1A function
# Type: cell-based
# Recorded conditions: cells marked IC50 (antagonist); read-out: 5-HT1A Function cAMP IC50
pIC50 here is simply -log10 of the concentration when that concentration is written in mol/L.

Below are worked cases with known answers.
*Q* Value wanted: pIC50 (5-HT1A receptor (Homo sapiens, UniProt P08908)) of entry CNC(=O)c1ccc(F)c2c1CC(N(CCc1c[nH]c3ccc(F)cc13)C1CCC1)CO2 (stereo not shown) [Compound 87]
*A* 6.76

*Q* Repeat with N#Cc1ccc2[nH]cc(CCCN(CC3CC3)[C@H]3COc4c(F)ccc(C(N)=O)c4C3)c2c1 [Compound 98b]
*A* 6.79

---
*Q* Value wanted: pIC50 (5-HT1A receptor (Homo sapiens, UniProt P08908)) of entry COc1ccc2[nH]cc(CCCN(C3CCC3)C3COc4c(F)ccc(C(N)=O)c4C3)c2c1 (stereo not shown) [Compound 107]
*A* 7.35

*Q* Repeat with O=C(NC1CC1)c1ccc(F)c2c1CC(N(CCCc1c[nH]c3ccc(F)cc13)C1CCC1)CO2 (stereo not shown) [Compound 64]
*A* 6.54

*Q* Repeat with NC(=O)c1ccc(F)c2c1C[C@@H](N(CC1CC1)CC1CCc3[nH]c4ccc(F)cc4c3C1)CO2 (single isomer, unassigned; (-)) [Compound 178a]
*A* 5.90

*Q* Repeat with NC(=O)c1ccc(F)c2c1CC(N(CC1CCc3[nH]c4ccc(F)cc4c3C1)C1CCC1)CO2 (single isomer, unassigned; (+)) [Compound 174c]
*A* 6.22

*Q* Repeat with O=C(NC1CCC1)c1ccc(F)c2c1CC(N(CCCc1c[nH]c3ccc(F)cc13)C1CCC1)CO2 (stereo not shown) [Compound 65]
*A* 6.45

Data provenance is patent US20050032873A1.
